- System: NCI-H1048 cells
- experimentNotes: MTT proliferation assay, NCI-H1048;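 also: Dose-response in 96-well plates over 8 or 10 concentration points, with exposure spanning 3-4 cell doublings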
- Type: cell-based
- protocolConditions: 5 days compound exposure, 1:3 serial dilution starting at 10 μM
*1 amine or outer side, *2 acyl side, *3 side chain or, on linkers, in order; H or OH if unused. Where a SMILES comes first, the peptide text is derived from it. Bridges are numbered along the chain shown (N, C = ends). [ ]: non-standard residue; d: D form. The star is where a group is joined. X190 = CC(=O)N1CC(Oc2ncc(Cl)cc2C[C@@H](C(=O)[*:2])N(C)[*:1])C1; NMehhhLys(Me) = CN([C@@H](CCCCCCCN(C)[*:3])C(=O)[*:2])[*:1]; cBuCO(3,3-F2-1-CF3) = O=C(C1(C(F)(F)F)CC(F)(F)C1)*; Pro(trans-4-F) = O=C(O)[C@@H]1C[C@@H](F)CN1; Gly(cPr) = N[C@H](C(=O)O)C1CC1
measuredEndpoint: GI50 (µM)

compound="CC(C)C[C@@H]1NC(=O)[C@@H](N(C)C(=O)[C@@H](NC(=O)[C@@H]2C[C@@H](F)CN2C(=O)C2(C(F)(F)F)CCC2)C2CC2)C/C=C\\CCCCN(C)C(=O)[C@H](Cc2cc(Cl)ccc2-c2cnn(C)c2)N(C)C1=O [Example 173]" measuredendpoint=GI50 valuemeasured=0.01
compound="CC(=O)N1CC(Oc2ncc(Cl)cc2C[C@H]2C(=O)N(C)CCCCCCC[C@H](N(C)C(=O)[C@@H](NC(=O)[C@@H]3C[C@@H](F)CN3C(=O)C3(C(F)(F)F)CC(F)(F)C3)C3CC3)C(=O)N[C@@H](CC(C)C)C(=O)N2C)C1 [Example 324] ({cBuCO(3,3-F2-1-CF3)}-[Pro(trans-4-F)][Gly(cPr)][NMehhhLys(Me)]L[X190]; lactam 3-C)" measuredendpoint=GI50 valuemeasured=0.04
